Test: Induction of anti-CD3 antibodies-stimulated human T cell activation at 8 uM assessed fold increase in IL-2 secretion measured by ELISA assay; further: reference of the scale not given here
Type: functional, T cell line
REPORTED_ENDPOINT: fold change (FC)

| MOLECULE | fold change (FC) |
| --- | --- |
| Cn1cnnc1C(F)(F)[C@@](C)(F)c1cccc(N2Cc3c(cc(CN4CC[C@H](F)C4)cc3C(F)(F)F)C2=O)c1 | 0.051 |
| Cn1cnnc1CC1(c2cccc(N3Cc4c(cccc4C(F)(F)F)C3=O)c2)CC1 | >=0.201 |
| CC(O)c1cc2c(c(C(F)(F)F)c1)CN(c1cccc([C@@](C)(F)C(F)(F)c3nncn3C)c1)C2=O (stereo partly drawn) | >=0.201 |
| C[C@H](Cc1nncn1C)c1cccc(N2Cc3c(cc(CN4CC[C@@H](F)C4)cc3C(F)(F)F)C2=O)c1 | >=0.201 |
| Cn1cnnc1[C@@H](F)[C@](C)(F)c1cccc(N2Cc3c(cccc3C(F)(F)F)C2=O)c1 (single isomer, unassigned) | 0.051 |
| C[C@@H](Sc1nncn1C)c1cccc(NC(=O)c2cccc(C(F)(F)F)n2)c1 | 0.051 |
| C[C@H](Sc1nncn1C)c1cccc(NC(=O)c2cc(Cl)cc(C(F)(F)F)n2)c1 | 0.051 |
| C[C@H](Sc1nncn1C)c1cccc(NC(=O)c2cc(C(=O)N3C[C@H](O)C[C@@H]3C)ccn2)c1 | <=0.05 |

Determine its reported fold change (FC): `C[C@H](Cc1nncn1C)c1cccc(NC(=O)c2cccc(C(F)(F)CO)n2)c1`
0.051

Determine its reported fold change (FC): `Cc1ccc(C(=O)Nc2cccc([C@H](C)Sc3nncn3C)c2)nc1C(F)(F)F`
<=0.05

Determine its reported fold change (FC): `C[C@H](Cc1nncn1C)c1cccc(NC(=O)c2cc(C3CC3)nc(C3CC3)n2)c1`
>=0.201

Determine its reported fold change (FC): `C[C@H](Cc1nncn1C)c1cccc(NC(=O)c2cccc(C(C)(C)C)n2)c1`
>=0.201

Determine its reported fold change (FC): `C[C@H](Cc1nncn1C)c1cccc(NC(=O)c2cccc(C(F)(F)F)n2)c1`
>=0.201
